Assay: Permeability of the compound measured after 4 hrs by PAMPA
Type: ADME
Settings: read-out: permeability
Measured Attribute: Papp at 4 h

>  <Mol Smiles>
CN1CCCc2c1nc(N1CCC3(CC1)CN(CCO)c1cc(F)cc(F)c13)[nH]c2=O

>  <Papp at 4 h>
3.3 ×10⁻⁶ cm/s

$$$$
>  <Mol Smiles>
C[C@@H]1CN(c2cc(F)c3c(c2)N(C)C(=O)C32CCN(c3nc4c(c(=O)[nH]3)CCCN4C)CC2)C[C@H](C)O1

>  <Papp at 4 h>
12.4 ×10⁻⁶ cm/s

$$$$
>  <Mol Smiles>
CN1CCCc2c1nc(N1CCC3(CC1)C(=O)N(CCO)c1cc(F)cc(F)c13)[nH]c2=O

>  <Papp at 4 h>
3 ×10⁻⁶ cm/s

$$$$
>  <Mol Smiles>
CN1CCN(c2cc(F)c3c(c2)N(C)C(=O)C32CCN(c3nc4c(c(=O)[nH]3)CCCN4C)CC2)CC1

>  <Papp at 4 h>
12.8 ×10⁻⁶ cm/s

$$$$

Next, consider the following compound.
Would you kindly share the measured Papp at 4 h for O=c1[nH]c(N2CCC3(CC2)CN(CCO)c2cc(F)cc(F)c23)nc2c1CCCC2 ?
2 ×10⁻⁶ cm/s
